Ki data for Cell division control protein 42 homolog (Homo sapiens) (UniProt P60953) follow.
Provide the reading as a plain figure in nM.

Known results for molecules:
NS(=O)(=O)c1ccc(N2N=C(c3ccccc3)CC2c2cccc(Br)c2)cc1 (stereo unspecified)
700
NS(=O)(=O)c1ccc(N2N=C(c3ccccc3)CC2c2ccccc2Cl)cc1 (stereo unspecified)
1530
COc1ccc(C2CC(c3ccsc3)=NN2c2ccc(S(N)(=O)=O)cc2)cc1 (stereo unspecified)
1540
COc1ccc(C2=NN(c3ccccc3)C(c3ccccc3C(F)(F)F)C2)cc1 (stereo unspecified)
7280
COc1ccc(C2CC(c3cccc(C)c3)=NN2c2ccc(S(N)(=O)=O)cc2)cc1 (stereo unspecified)
800
Cc1cccc(C2CC(c3ccccc3)=NN2c2ccc(S(N)(=O)=O)cc2)c1 (stereo unspecified)
1060
O=S(=O)(c1ccc(N2N=C(c3ccccc3)CC2c2ccccc2)cc1)C(F)F (stereo unspecified)
50
COc1ccc(C2CC(c3ccccc3OC)=NN2c2ccc(S(N)(=O)=O)cc2)cc1 (stereo unspecified)
1270

Could you now look at the following molecule, please?
Ask: Form entry - test system: Cell division control protein 42 homolog (Homo sapiens) (UniProt P60953); read-out: Ki; molecule: COc1ccc(C2CC(c3cccc(Br)c3)=NN2c2ccc(S(N)(=O)=O)cc2)cc1 (stereo unspecified)
Sequence (P60953 whole entry, looked up): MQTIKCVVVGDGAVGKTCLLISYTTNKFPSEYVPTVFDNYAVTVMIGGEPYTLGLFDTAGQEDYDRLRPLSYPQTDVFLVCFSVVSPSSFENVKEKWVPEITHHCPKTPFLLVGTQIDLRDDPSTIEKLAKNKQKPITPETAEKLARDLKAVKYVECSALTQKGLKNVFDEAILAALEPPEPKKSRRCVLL
Reply: 440

* * *

log10(Ki) data for Cell division control protein 42 homolog (Homo sapiens) follow.
Reminder: these figures are log10 of reported Ki, in nM before transformation.

Known results for molecules:
COc1ccc(C2CC(c3ccc(F)cc3)=NN2c2cccc(F)c2)cc1OC (stereo not given)
3.65
COc1ccc(C2CC(c3cccc(Cl)c3)=NN2c2ccc(S(N)(=O)=O)cc2)cc1 (stereo not given)
2.43

Could you now look at the following molecule, please?
Ask: Sample COc1cccc(C2CC(c3ccccc3)=NN2c2ccc(S(N)(=O)=O)cc2)c1 (stereo not given) — what was its log10(Ki)?
Reply: 3.00

* * *

pKi data for Cell division control protein 42 homolog (Homo sapiens) follow.
Give only the number. pKi is defined as minus log10 of concentration in molar units.

Known results for compounds:
COc1ccc(C2CC(c3cccs3)=NN2c2ccc(S(N)(=O)=O)cc2)cc1 (stereo not given)
6.21
COc1ccc(-c2cc(-c3ccccc3)nn2-c2ccc(S(N)(=O)=O)cc2)cc1
5.97
COc1ccc(C2CC(c3ccc(Cl)cc3)=NN2c2ccc(S(N)(=O)=O)cc2)cc1 (stereo not given)
6.31

Ask: Sample COc1ccc(C2CC(c3cccc(F)c3)=NN2c2ccc(S(N)(=O)=O)cc2)cc1 (stereo not given) — what was its pKi?
Reply: 6.21

Ask: Another compound: COc1ccc(C2CC(c3ccc(F)cc3)=NN2c2ccc(S(N)(=O)=O)cc2)cc1 (stereo not given)
Reply: 6.05

* * *

Ki data for Cell division control protein 42 homolog (Homo sapiens) follow.
Provide the reading as a plain figure in nM.

Known results for molecules:
COc1ccc(C2CC(c3cccnc3)=NN2c2ccc(S(N)(=O)=O)cc2)cc1 (stereo not given)
2010
COc1ccc(C2CC(c3cccc(OC)c3)=NN2c2ccc(S(N)(=O)=O)cc2)cc1 (stereo not given)
310
NS(=O)(=O)c1ccc(N2N=C(c3ccc(Cl)cc3)CC2c2ccccc2)cc1 (stereo not given)
700
COc1ccc(C2CC(c3ccccc3)=NN2c2ccc(S(N)(=O)=O)cc2)cc1OC (stereo not given)
1210

Could you now look at the following molecule, please?
Ask: Sample COc1ccc(C2CC(c3ccccc3Cl)=NN2c2ccc(S(N)(=O)=O)cc2)cc1 (stereo not given) — what was its Ki?
Reply: 550

* * *

Ki data for Cell division control protein 42 homolog (Homo sapiens) follow.
Provide the reading as a plain figure in nM.

Known results for molecules:
Cc1ccc(C2CC(c3ccccc3)=NN2c2ccc(S(N)(=O)=O)cc2)cc1 (configuration not stated)
1050
COc1ccc(C2CC(c3ccccc3Br)=NN2c2ccc(S(N)(=O)=O)cc2)cc1 (configuration not stated)
710
COc1ccc(C2=NN(c3ccc(S(N)(=O)=O)cc3)C(c3ccc(OC)cc3)C2)cc1 (configuration not stated)
540
COc1ccc(C2CC(c3cccc(C(F)(F)F)c3)=NN2c2ccc(S(N)(=O)=O)cc2)cc1 (configuration not stated)
660
COc1ccc(C2CC(c3ccc(N(C)C)cc3)=NN2c2ccc(S(N)(=O)=O)cc2)cc1 (configuration not stated)
710
NS(=O)(=O)c1ccc(N2N=C(c3ccccc3)CC2c2ccc(Br)cc2)cc1 (configuration not stated)
230

Could you now look at the following molecule, please?
Ask: Sample COc1ccccc1C1CC(c2ccccc2)=NN1c1ccc(S(N)(=O)=O)cc1 (configuration not stated) — what was its Ki?
Reply: 4750

* * *

Ki data for Cell division control protein 42 homolog (Homo sapiens) (UniProt P60953) follow.
Provide the reading as a plain figure in nM.

Cc1ccccc1C1CC(c2ccccc2)=NN1c1ccc(S(N)(=O)=O)cc1 (configuration not stated)
3510

Ask: Sample NS(=O)(=O)c1ccc(N2N=C(c3ccccc3)CC2c2cccc(Cl)c2)cc1 (configuration not stated) — what was its Ki?
Reply: 700

Ask: Another compound: NS(=O)(=O)c1ccc(N2N=C(c3ccccc3)CC2c2ccc(Cl)cc2)cc1 (configuration not stated)
Reply: 580

Ask: Another compound: COc1ccc(C2CC(c3ccc(Br)cc3)=NN2c2ccc(S(N)(=O)=O)cc2)cc1 (configuration not stated)
Reply: 630

Ask: Another compound: COc1ccc(C2CC(c3ccccc3F)=NN2c2ccc(S(N)(=O)=O)cc2)cc1 (configuration not stated)
Reply: 590

Ask: Another compound: COc1ccc(C2CC(c3ccc(C)cc3)=NN2c2ccc(S(N)(=O)=O)cc2)cc1 (configuration not stated)
Reply: 470

Ask: Another compound: COc1ccc(C2CC(c3ccccc3C)=NN2c2ccc(S(N)(=O)=O)cc2)cc1 (configuration not stated)
Reply: 870
